This section presents molecules with their documented EC50 values.
- testedTarget: UniProt Q9NR97
- Sequence (Q9NR97 27-1041): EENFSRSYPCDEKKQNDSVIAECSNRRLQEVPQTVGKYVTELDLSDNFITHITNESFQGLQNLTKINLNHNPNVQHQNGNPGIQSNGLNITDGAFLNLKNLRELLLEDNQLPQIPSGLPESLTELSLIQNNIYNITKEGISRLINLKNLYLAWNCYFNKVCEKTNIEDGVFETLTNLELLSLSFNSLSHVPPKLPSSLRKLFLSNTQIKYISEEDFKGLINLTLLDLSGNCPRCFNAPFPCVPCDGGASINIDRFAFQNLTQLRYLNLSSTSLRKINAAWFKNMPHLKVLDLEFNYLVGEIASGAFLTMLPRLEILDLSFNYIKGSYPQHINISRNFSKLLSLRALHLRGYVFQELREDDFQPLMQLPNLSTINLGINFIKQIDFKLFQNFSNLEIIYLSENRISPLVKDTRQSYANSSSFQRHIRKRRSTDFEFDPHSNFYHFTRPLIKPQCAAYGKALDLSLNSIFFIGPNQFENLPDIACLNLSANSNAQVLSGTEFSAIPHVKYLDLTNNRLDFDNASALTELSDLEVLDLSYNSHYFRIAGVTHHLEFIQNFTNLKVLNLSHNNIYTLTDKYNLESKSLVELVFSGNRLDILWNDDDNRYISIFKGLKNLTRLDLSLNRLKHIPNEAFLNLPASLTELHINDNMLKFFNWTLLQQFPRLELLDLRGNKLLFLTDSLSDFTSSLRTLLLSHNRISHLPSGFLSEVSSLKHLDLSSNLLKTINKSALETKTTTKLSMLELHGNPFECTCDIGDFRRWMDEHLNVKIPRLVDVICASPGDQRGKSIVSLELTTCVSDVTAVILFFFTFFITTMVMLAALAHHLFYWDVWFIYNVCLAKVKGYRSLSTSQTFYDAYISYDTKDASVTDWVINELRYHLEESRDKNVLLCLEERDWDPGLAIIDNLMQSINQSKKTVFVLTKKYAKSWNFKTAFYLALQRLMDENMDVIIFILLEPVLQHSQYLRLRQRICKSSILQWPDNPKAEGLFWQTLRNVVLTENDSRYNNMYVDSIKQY
- testName: TLR8 agonist bioactivity: induction of TNFα protein in monocyte cultures (ELISA, 24 h)
- Format: cell-based
- reportedConditions: TNFα induction, human monocytes, 24 hours

molecule | EC50 / nM
CCCCCCCCCCCCNCc1ccc(Cn2c(CCCC)nc3c(N)nc4ccccc4c32)cc1 [Compound No. 63-24] | 1040
CCCCCNCc1ccc(Cn2c(CCCC)nc3c(N)nc4ccccc4c32)cc1 [Compound No. 63-17] | 104
CCCCCCCCCCCC(=O)NCc1ccc(Cn2c(CCCC)nc3c(N)nc4ccccc4c32)cc1 [Compound No. 63-08] | 1270
CCCCCCCCCCCCCCCCCCNCc1ccc(Cn2c(CCCC)nc3c(N)nc4ccccc4c32)cc1 [Compound No. 63-29] | 2770
CCCCCCCCC(=O)NCc1ccc(Cn2c(CCCC)nc3c(N)nc4ccccc4c32)cc1 [Compound No. 63-05] | 2170

Reference source: patent US11124510B2
